Measure: IC50 (µM)
// note: answer is a bare numeric in µM

Request: Given the entry O=C1NC(=O)C(=O)C(=O)N1 [Alloxan] , what IC50 was observed with UniProt O15294?
Response: 18
